# System: granulocytes
# testProtocol: peptidase activity in leukemia and non-leukemia patients, granulocytes (Table 6C)
# Type: cell-based, human
# Design: unit not given here
# measurementParameters: J4 12/2/91 A L
parameterMeasured: enzyme activity, Grans

# example entries with known answers
INSERT INTO results (compound, readoutvalue) VALUES
  ('C[C@@H](O)[C@H](N)C(=O)N1CCC[C@H]1C(=O)Nc1ccc2c(c1)Oc1cc(NC(=O)[C@@H]3CCCN3C(=O)[C@@H](N)[C@@H](C)O)ccc1C21OC(=O)c2ccccc21 [TP, (H-L-Thr--Pro)2 Rho 110 .2TFA]', 2.59),
  ('CC(C)[C@H](N)C(=O)N[C@@H](CO)C(=O)Nc1ccc2c(c1)Oc1cc(NC(=O)[C@H](CO)NC(=O)[C@@H](N)C(C)C)ccc1C21OC(=O)c2ccccc21 [VS, (H-L-Val--Ser)2 Rho 110 .2TFA]', 0.14);

// switching to the query compound
For NC(=O)CC[C@H](N)C(=O)N[C@@H](CO)C(=O)Nc1ccc2c(c1)Oc1cc(NC(=O)[C@H](CO)NC(=O)[C@@H](N)CCC(N)=O)ccc1C21OC(=O)c2ccccc21 [QS, (H-L-Gln--Ser)2 Rho 110 .2TFA] on granulocytes, measured enzyme activity, Grans was 0.44
